A collection of molecules and their measured melting point

Example molecules with recorded melting point:
> print(dat)
                                   molecule     test.value
1             Cc1nc2ccccc2c(C(=O)O)c1C(=O)O  225 to 233 °C
2            O=Cc1ccc(-c2ccc(-c3cccs3)s2)s1  133 to 135 °C
3  CN(C)c1ccc([N+]([O-])=CC(=O)c2ccc(C(=O)C=[N+]([O-])c3ccc(N(C)C)cc3)cc2)cc1  132 to 134 °C

// sample O=C(O)c1cccc(N2CCOCC2)c1 , its melting point was 161 to 163 °C

// sample Cc1nc(CCl)c(C)o1 , its melting point was 34 to 37 °C

// sample Cc1nc(-c2cnccn2)sc1C(=O)O , its melting point was 237 to 238 °C

// sample CC(=O)c1ccc2c(c1)OCO2 , its melting point was 86 to 89 °C

// sample Cc1c(C(=O)CBr)sc2ccc(Cl)cc12 , its melting point was 154 to 156 °C

// sample COc1cccc(O)c1C=O , its melting point was 71 °C

// sample Cc1nc(C(F)(F)F)c(C(=O)O)cc1-c1nc(-c2ccccc2)cs1 , its melting point was 188 to 190 °C

// sample NNC(=O)c1cc(OCC(F)(F)F)ccc1OCC(F)(F)F , its melting point was 86 to 88 °C

// sample COc1ccc2ccccc2c1CO , its melting point was 100 to 104 °C

// sample O=C(O)C=Cc1cccnc1 , its melting point was 233 to 237 °C

// sample NC(Cc1ccc(F)cc1Cl)=NO , its melting point was 146 to 147 °C

// sample Nc1cccc(CN2CCOCC2)c1 , its melting point was 73 to 75 °C

// sample Cc1cc(C)nc(NN)n1 , its melting point was 166 to 167 °C

// sample Brc1nc(Br)c(Br)c(Br)c1Br , its melting point was 206 to 208 °C

// sample COc1ccc2cc(Br)ccc2c1CCl , its melting point was 144 to 146 °C

// sample O=[N+]([O-])c1ccc(OCCN2CCOCC2)cc1 , its melting point was 84 to 86 °C

// sample CN(C)c1ccc(C=C2N=C(c3ccccc3)OC2=O)cc1 , its melting point was 204 to 205 °C

// sample CC(C)Nc1ccc(Cl)cc1[N+](=O)[O-] , its melting point was 72 to 74 °C

---

A collection of compounds and their measured melting point

Example compounds with recorded melting point:
> print(dat)
                                   compound     test.value
1  CC12CCC3C(CC=C4CC(O)CCC43C)C1CCC2=O (single isomer, unassigned; (+))  146 to 151 °C
2                        CC(=O)Nc1ccc(S)cc1  149 to 154 °C
3  CCCCCCCC(=O)Oc1ccc(/N=N/c2ccc(CCCC)cc2)cc1  63 to 64.2 °C
4           O=C(OCc1ccccc1Cl)ON1C(=O)CCC1=O  103 to 105 °C
5                       CCOC(=O)c1[nH]cnc1C  204 to 206 °C
6  O=S(=O)(O)CC(O)CNC(CO)(CO)CO (configuration not stated)  220 to 221 °C

// sample COc1cccc(C=Nc2n[nH]c(N=Cc3cccc(OC)c3O)c2Cc2ccc(Cl)cc2)c1O , its melting point was 261 to 263 °C

// sample CC(C)(C)OC(=O)N1CCCN(c2cccc(O)c2)CC1 , its melting point was 143 to 144 °C

// sample CC(C)(C)OC(=O)N1CCN(c2cc(C#N)ccn2)CC1 , its melting point was 127 to 129 °C

// sample Cc1cccc2c1C(=O)NC2=O , its melting point was 183 to 189 °C

// sample CC(C)(C)c1cc(C(=O)c2ccccc2)c(O)cc1O , its melting point was 144 to 148 °C

// sample BrC1CCC(Br)C(Br)CCC(Br)C(Br)CCC1Br (configuration not stated) , its melting point was 173 to 177 °C

// sample O=C(O)c1csc(-c2cccc(Cl)c2Cl)n1 , its melting point was 233 to 234 °C

// sample O=C(O)c1ccc(-c2ccco2)cc1 , its melting point was 231 to 232 °C

// sample OCc1cc(Cl)ccc1O , its melting point was 90 to 91 °C

// sample CN1C(c2cccnc2)N(C)[C@@H](c2ccccc2)[C@@H]1c1ccccc1 , its melting point was 99 to 102 °C

// sample CC(=O)C1CC(CC(=O)O)C1(C)C (configuration not stated) , its melting point was 104 to 107 °C

---

A collection of molecules and their measured melting point

Example molecules with recorded melting point:
> print(dat)
                               molecule     test.value
1         O=c1cc(C(F)(F)F)c2ccc(O)cc2o1  179 to 182 °C
2        NNC(=O)C=Cc1ccc(C=CC(=O)NN)cc1  258 to 260 °C
3            Cc1oc(C(=O)NN)nc1-c1ccccc1  124 to 126 °C
4        Cn1nc(C(F)(F)F)c(-c2ccccc2)c1N    85 to 89 °C
5  Cc1ccc(C(=O)NC(=Cc2ccccc2)C(=O)O)cc1  229 to 230 °C
6            C=CCn1c(=O)oc(=O)c2ccccc21  111 to 113 °C

// sample COc1cc(OC(C)=O)c2c(=O)c(OC(C)=O)c(-c3ccc(OCc4ccccc4)c(OC(C)=O)c3)oc2c1 , its melting point was 182 to 192 °C

// sample COC(=O)c1cc(OCC(F)(F)F)ccc1OCC(F)(F)F , its melting point was 40 to 41 °C

// sample Cc1n[nH]c(C)c1Oc1ccc(Cl)cc1 , its melting point was 139 to 141 °C

---

A collection of compounds and their measured melting point

Example compounds with recorded melting point:
> print(dat)
                                   compound     test.value
1               CSc1nc(N)c(C(=O)c2ccccc2)s1  126 to 127 °C
2  CC[C@@]1(O)CC[C@]2(C)[C@H]3CC[C@]4(C)C(O)CC[C@H]4[C@@H]3CC[C@@]2(C)C1 (some centres undefined)  168 to 169 °C
3  C[C@]12CCC(=O)C[C@@H]1CC[C@@H]1[C@@H]2CC[C@]2(C)C(=O)CC[C@@]12O  225 to 227 °C
4                    C[C@H](C(=O)O)c1ccccc1    29 to 32 °C
5  CCOC(=O)C1=C(C)OC(N)=C(C#N)C1c1ccccc1 (centres undefined)  189 to 190 °C

// sample c1ccc(CON=C(c2cc3ccccc3o2)c2cc3ccccc3o2)cc1 , its melting point was 127 to 128 °C

// sample Cc1ccc2ccc(Cl)cc2n1 , its melting point was 74 to 78 °C

// sample Cc1nc(N)ccc1[N+](=O)[O-] , its melting point was 185 to 189 °C

// sample CSc1ncc(CO)n1Cc1ccccc1 , its melting point was 109 to 111 °C

---

A collection of compounds and their measured melting point

Example compounds with recorded melting point:
> print(dat)
                                   compound     test.value
1             CCCCC[C@H]1CC[C@H](C(=O)O)CC1    52 to 56 °C
2  CC(/C=C(\C)c1ccc(C)cc1)=NNc1ccc([N+](=O)[O-])cc1[N+](=O)[O-]  182 to 184 °C
3              COC(=O)c1ccc2c(C=O)c[nH]c2c1  219 to 224 °C
4                            Cc1noc(C)c1C#N    46 to 48 °C
5        CC(C)(C)OC(=O)N1CCN(c2ccccc2CO)CC1    67 to 71 °C
6  OCC(I)CC(F)(F)C(F)(F)C(F)(F)C(F)(F)C(F)(F)C(F)(F)C(F)(F)C(F)(F)F (configuration not stated)    54 to 55 °C

Moving on to another compound below.
// sample OCc1csc2ccccc12 , its melting point was 49 to 50 °C

---

A collection of molecules and their measured melting point

Example molecules with recorded melting point:
> print(dat)
                               query.smiles     test.value
1                       CC(=O)c1nc2ccccc2s1  109 to 112 °C
2  O=[N+]([O-])c1ccc(-c2nnc3n2CN(c2ccccc2)CS3)cc1       > 320 °C
3                        Cc1ccc2cc(F)ccc2c1    73 to 74 °C
4                      O=C(O)CCOc1ccc(F)cc1    84 to 86 °C
5  O=C(NCc1ccc(Cl)cc1)c1cc([N+](=O)[O-])cc([N+](=O)[O-])c1  200 to 202 °C

// sample CCOC(=O)c1ccccc1C(=C1C=C(Br)C(=O)C(Br)=C1)c1cc(Br)c(O)c(Br)c1 , its melting point was 208 to 211 °C
